property: melting point

Which melting point is reported for this compound? `CNc1cccc(N)c1C(N)=O` 130 to 132 °C

What do you get for `OCc1cn(-c2cc(F)cc(C(F)(F)F)c2)cn1` ? 144 to 145 °C

What do you get for `O=S(=O)(NCCCCCOc1ccc(-n2ccnc2)cc1)c1ccc(Br)cc1` ? 137 to 138 °C

Next:
Which melting point is reported for this compound? `Cc1ccc2oc(=O)c(C(=O)Oc3cc(F)ccc3[N+](=O)[O-])cc2c1` 224 to 226 °C

---

property: melting point

Consider the worked cases shown below.
Which melting point is reported for this compound? `CS(=O)(=O)CC(=O)Nc1ccccc1` 140 to 141 °C

What do you get for O=c1ccn(CCO)c(C(O)c2ccc3c(c2)OCO3)c1OCc1ccccc1 (stereo unspecified) ? 195 to 196 °C

Next:
Which melting point is reported for this compound? `O=CNNc1ccc(NC(=S)N2CCCCC2)cc1` 174 to 176 °C

What do you get for `CC(C)C(=S)Nc1ccc([N+](=O)[O-])c(C(F)(F)F)c1` ? 74 to 76 °C

What do you get for `CCS(=O)(=O)Nc1cc(-c2nsc(C(F)(F)F)c2Cl)c(Cl)cc1Cl` ? 135 °C

What do you get for CCS(=O)(=O)c1cc(C(=O)NCC2CCCN2C)c(OC)cc1N (stereo unspecified) ? 126 to 127 °C
